Data provenance is the supplement of paper PMC9112550.

Tested on: Escherichia coli TOP10
protocolText: shrunken log2 fold change of peptide-encoding DNA abundance (4.5 h post-induction vs induction); higher = less antimicrobial activity (less host growth inhibition)
statedConditions: time post-induction: 4.5 h; library: site-saturation at positions 5, 18, 19, 20
measurementKind: shrunken log2 fold change

[
  {
    "recordSequence": "RRIRDRPPRLPRPRPRPPIQPRP",
    "measurementTarget": "Escherichia coli TOP10",
    "shrunken log2 fold change": 0.242
  },
  {
    "recordSequence": "RRIRLRPPRLPRPRPRPCWWPRP",
    "measurementTarget": "Escherichia coli TOP10",
    "shrunken log2 fold change": 0.26
  },
  {
    "recordSequence": "RRIRCRPPRLPRPRPRPRPCPRP",
    "measurementTarget": "Escherichia coli TOP10",
    "shrunken log2 fold change": 0.339
  },
  {
    "recordSequence": "RRIRYRPPRLPRPRPRPNAYPRP",
    "measurementTarget": "Escherichia coli TOP10",
    "shrunken log2 fold change": -0.212
  },
  {
    "recordSequence": "RRIRYRPPRLPRPRPRPKCQPRP",
    "measurementTarget": "Escherichia coli TOP10",
    "shrunken log2 fold change": -0.182
  }
]

Query: Return the recorded shrunken log2 fold change value; entry: RRIRQRPPRLPRPRPRPDRKPRP
Result: -0.085

Query: Return the recorded shrunken log2 fold change value; entry: RRIRCRPPRLPRPRPRPYTDPRP
Result: -0.431

Query: Return the recorded shrunken log2 fold change value; entry: RRIRDRPPRLPRPRPRPYNKPRP
Result: -0.398

Query: Return the recorded shrunken log2 fold change value; entry: RRIRNRPPRLPRPRPRPGDMPRP
Result: -0.21

Query: Return the recorded shrunken log2 fold change value; entry: RRIRLRPPRLPRPRPRPDFIPRP
Result: -0.295

Query: Return the recorded shrunken log2 fold change value; entry: RRIRHRPPRLPRPRPRPGNAPRP
Result: 0.137

----------
Below: a set of entries, each annotated with reported shrunken log2 fold change.
System: Escherichia coli TOP10;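 further: peptides expressed intracellularly from a pBAD plasmid library in pooled LB shake-flask culture, induced with 0.3% L-arabinose, DNA abundance read by NGS, three biological replicates, DESeq2 with apeglm shrinkage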
protocolText: shrunken log2 fold change of peptide-encoding DNA abundance (4.5 h post-induction vs induction); higher = less antimicrobial activity (less host growth inhibition)
statedConditions: time post-induction: 4.5 h; library: site-saturation at positions 5, 18, 19, 20
Just the number, please.

Reference set (3 entries):
[
  {
    "recordSequence": "RRIRYRPPRLPRPRPRPAQPPRP",
    "shrunken log2 fold change": -0.0284
  },
  {
    "recordSequence": "RRIRCRPPRLPRPRPRPPHIPRP",
    "shrunken log2 fold change": 0.177
  },
  {
    "recordSequence": "RRIRWRPPRLPRPRPRPLKLPRP",
    "shrunken log2 fold change": -0.225
  }
]

Query: Identify measured shrunken log2 fold change obtained with Escherichia coli TOP10 for RRIRRRPPRLPRPRPRPNHFPRP .
Result: -0.0507

Query: Identify measured shrunken log2 fold change obtained with Escherichia coli TOP10 for RRIRMRPPRLPRPRPRPVGTPRP .
Result: 0.477

Query: Identify measured shrunken log2 fold change obtained with Escherichia coli TOP10 for RRIRNRPPRLPRPRPRPLERPRP .
Result: 0.0661

Query: Identify measured shrunken log2 fold change obtained with Escherichia coli TOP10 for RRIRYRPPRLPRPRPRPSRPPRP .
Result: -0.084

Query: Identify measured shrunken log2 fold change obtained with Escherichia coli TOP10 for RRIRLRPPRLPRPRPRPSAAPRP .
Result: 0.419
